Quick reference for Ret among some molecules
Species: Rattus norvegicus
test method notes: Open TG-GATES - Regimen: Daily Repeat
Type: toxicity, organism-based, Sprague-Dawley
Set-up: regimen Daily Repeat, gender Male, age 6 weeks
condition description: in vivo, po, 100 mg/kg, 72 h, tissue Blood, route gavage, dose level Low, time 3 day

| molecule | Ret / % |
| --- | --- |
| COc1ccc2[nH]c([S+]([O-])Cc3ncc(C)c(OC)c3C)nc2c1 (stereo not given) [OMEPRAZOLE] | 5.2 |
| CCOC(=O)CCC(=O)O[C@H]1[C@H](O[C@@H]2[C@@H](C)[C@H](O[C@H]3C[C@@](C)(OC)[C@@H](O)[C@H](C)O3)[C@@H](C)C(=O)O[C@H](CC)[C@@](C)(O)[C@H](O)[C@@H](C)C(=O)[C@H](C)C[C@@]2(C)O)O[C@H](C)C[C@@H]1N(C)C [ERYTHROMYCIN ETHYLSUCCINATE] | 4.9 |
| CCOc1ccc(NC(=O)CC(C)O)cc1 (stereo not given) [BUCETIN] | 6.9 |
| NC(N)=Nc1nc(CSCCC(N)=NS(N)(=O)=O)cs1 [FAMOTIDINE] | 5.7 |
| COC1=CC(=O)C[C@@H](C)[C@]12Oc1c(Cl)c(OC)cc(OC)c1C2=O [GRISEOFULVIN] | 7.5 |

The values you see were collected from ChEMBL document CHEMBL3885861.
